Data origin: ChEMBL document CHEMBL1135265

Let's look at some molecules and their measured pIC50.
- tested-system: Integrin alpha-4/beta-1 (Homo sapiens, UniProt P05556+P13612)
- Sequence (P05556 whole entry): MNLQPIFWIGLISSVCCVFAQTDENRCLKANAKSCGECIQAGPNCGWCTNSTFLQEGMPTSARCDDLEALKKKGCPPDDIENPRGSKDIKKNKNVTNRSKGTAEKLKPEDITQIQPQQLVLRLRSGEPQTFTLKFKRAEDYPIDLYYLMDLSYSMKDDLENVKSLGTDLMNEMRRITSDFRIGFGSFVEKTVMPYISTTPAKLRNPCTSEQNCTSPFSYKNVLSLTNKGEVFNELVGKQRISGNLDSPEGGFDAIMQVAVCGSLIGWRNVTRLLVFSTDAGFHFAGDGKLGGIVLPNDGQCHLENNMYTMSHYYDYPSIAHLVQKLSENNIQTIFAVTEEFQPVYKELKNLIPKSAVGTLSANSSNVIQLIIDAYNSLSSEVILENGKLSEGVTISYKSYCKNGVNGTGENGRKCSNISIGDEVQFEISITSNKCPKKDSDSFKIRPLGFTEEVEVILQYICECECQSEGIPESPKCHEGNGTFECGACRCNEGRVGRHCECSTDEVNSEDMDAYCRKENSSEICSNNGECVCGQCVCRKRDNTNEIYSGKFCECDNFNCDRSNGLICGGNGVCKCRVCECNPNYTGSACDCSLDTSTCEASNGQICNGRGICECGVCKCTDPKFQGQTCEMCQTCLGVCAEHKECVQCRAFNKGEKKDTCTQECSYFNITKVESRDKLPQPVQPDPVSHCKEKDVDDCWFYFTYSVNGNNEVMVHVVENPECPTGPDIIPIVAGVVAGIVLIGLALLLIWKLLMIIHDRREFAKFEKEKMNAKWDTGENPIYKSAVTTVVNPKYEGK
- Sequence (P13612 whole entry): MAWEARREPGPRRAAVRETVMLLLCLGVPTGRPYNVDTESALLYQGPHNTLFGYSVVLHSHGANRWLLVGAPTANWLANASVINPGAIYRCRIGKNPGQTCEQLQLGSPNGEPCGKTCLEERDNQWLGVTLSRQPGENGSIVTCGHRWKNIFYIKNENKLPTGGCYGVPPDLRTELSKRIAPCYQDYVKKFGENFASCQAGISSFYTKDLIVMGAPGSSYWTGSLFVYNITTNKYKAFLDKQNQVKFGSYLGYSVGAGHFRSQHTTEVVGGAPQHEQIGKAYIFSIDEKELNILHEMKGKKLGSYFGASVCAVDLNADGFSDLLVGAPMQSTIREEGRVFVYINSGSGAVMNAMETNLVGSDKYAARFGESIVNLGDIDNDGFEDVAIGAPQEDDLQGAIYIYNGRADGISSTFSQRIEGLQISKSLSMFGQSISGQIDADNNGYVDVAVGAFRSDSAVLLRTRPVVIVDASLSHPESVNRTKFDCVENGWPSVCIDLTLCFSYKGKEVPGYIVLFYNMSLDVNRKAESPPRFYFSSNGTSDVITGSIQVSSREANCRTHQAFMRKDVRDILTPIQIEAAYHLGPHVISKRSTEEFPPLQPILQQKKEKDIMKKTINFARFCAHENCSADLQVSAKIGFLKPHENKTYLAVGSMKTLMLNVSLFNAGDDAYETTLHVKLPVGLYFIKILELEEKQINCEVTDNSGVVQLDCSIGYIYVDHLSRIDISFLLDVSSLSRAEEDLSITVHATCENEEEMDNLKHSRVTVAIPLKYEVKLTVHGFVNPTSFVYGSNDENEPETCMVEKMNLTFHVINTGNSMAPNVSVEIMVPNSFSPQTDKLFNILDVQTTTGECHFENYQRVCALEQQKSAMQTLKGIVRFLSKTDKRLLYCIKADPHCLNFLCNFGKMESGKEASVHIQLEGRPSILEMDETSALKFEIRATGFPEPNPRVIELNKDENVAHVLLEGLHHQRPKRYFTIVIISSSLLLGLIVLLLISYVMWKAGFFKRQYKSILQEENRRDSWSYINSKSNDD
- method-notes: Inhibition of binding of Very late antigen 4/vascular cell adhesion molecule 1 in a cell based ligand binding assay (Jurkat cells)
pIC50 is defined as minus the log10 of a concentration measured in mol/L.

Known results for molecules:
structure_notation=C=CC/N=c1\c(O)c(O)\c1=N/[C@@H](Cc1ccc(NC(=O)c2c(Cl)cncc2Cl)cc1)C(=O)O value_observed=6.92
structure_notation=O=C(Nc1ccc(C[C@H](/N=c2\c(O)c(O)\c2=N/C2CCC2)C(=O)O)cc1)c1c(Cl)cncc1Cl value_observed=6.81
structure_notation=CCN(CC)c1c(N[C@@H](Cc2ccc(-c3ccccc3OC)cc2)C(=O)O)c(=O)c1=O value_observed=5.94

Kindly consider the entry below.
Report pIC50, nothing else, for this molecule: "CC(C)/N=c1\c(O)c(O)\c1=N/[C@@H](Cc1ccc(NC(=O)c2c(Cl)cncc2Cl)cc1)C(=O)O" 7.02

====

Overview of reported IC50 across a group of compounds:
- tested-system: Integrin alpha-4/beta-1 (Homo sapiens, UniProt P05556+P13612)
- method-notes: Inhibition of binding of Very late antigen 4/vascular cell adhesion molecule 1 in a cell based ligand binding assay (Jurkat cells)
Could you give me the number in nM? Just the number is fine.

Known IC50 results, listed for orientation:
structure_notation=O=C(Nc1ccc(C[C@H](/N=c2/c(N3CCNCC3)c(O)c2=O)C(=O)O)cc1)c1c(Cl)cncc1Cl outcome_measure=IC50 value_observed=40
structure_notation=CN(C)c1c(N[C@@H](Cc2ccc(NC(=O)c3c(Cl)cncc3Cl)cc2)C(=O)O)c(=O)c1=O outcome_measure=IC50 value_observed=590

Identify IC50 associated with the compound "CC(C)C/N=c1\c(O)c(O)\c1=N/[C@@H](Cc1ccc(NC(=O)c2c(Cl)cncc2Cl)cc1)C(=O)O" 85

Look up IC50 of "CCC/N=c1\c(O)c(O)\c1=N/[C@@H](Cc1ccc(-c2ccccc2OC)cc1)C(=O)O" and report it. 10800

====

- tested-system: Integrin alpha-4/beta-1 (Homo sapiens, UniProt P05556+P13612)
- method-notes: Inhibition of binding of Very late antigen 4/vascular cell adhesion molecule 1 in a cell based ligand binding assay (Jurkat cells)
outcome-measure: pIC50
Notebook: values listed as pIC50 are -log10 of the concentration (mol/L).

Guide cases for pIC50, answers given:
structure_notation=O=C(Nc1ccc(C[C@H](/N=c2\c(O)c(O)\c2=N/CCCC(F)(F)F)C(=O)O)cc1)c1c(Cl)cncc1Cl value_observed=6.43
structure_notation=CCN1CCN(c2c(N[C@@H](Cc3ccc(NC(=O)c4c(Cl)cncc4Cl)cc3)C(=O)O)c(=O)c2=O)CC1 value_observed=7.22
structure_notation=CCC/N=c1\c(O)c(O)\c1=N/[C@@H](Cc1ccc(NC(=O)c2c(Cl)cncc2Cl)cc1)C(=O)O value_observed=6.92

Now for another entry.
Look up and state reported pIC50 for "CCN(CC)c1c(N[C@@H](Cc2ccc(OCc3c(Cl)cccc3Cl)cc2)C(=O)O)c(=O)c1=O" 4.91

====

Listing of entries alongside the reported k el.
- method-notes: Rate constant (k) of clearance from isolated perfused rat liver (IPRL)
- Assay type: ADME
Answer format reminder: number followed by unit.

structure_notation=CC/N=c1\c(O)c(O)\c1=N/[C@@H](Cc1ccc(NC(=O)c2c(Cl)cncc2Cl)cc1)C(=O)O value_observed="0.000556 s⁻¹"

Please look at this compound and report its k el: "CCC/N=c1\c(O)c(O)\c1=N/[C@@H](Cc1ccc(Oc2ncccn2)cc1)C(=O)O" 0.000167 s⁻¹

Answer with the recorded k el of "O=C(Nc1ccc(C[C@H](/N=c2\c(O)c(O)\c2=N/C2CC2)C(=O)O)cc1)c1c(Cl)cncc1Cl" only. 0.000444 s⁻¹

Give the value of k el reported for the following: "O=C(Nc1ccc(C[C@H](/N=c2\c(O)c(O)\c2=N/c2ccccc2)C(=O)O)cc1)c1c(Cl)cncc1Cl" 0.000306 s⁻¹

Give me measured k el, please, for this compound: "O=C(Nc1ccc(C[C@H](/N=c2/c(N3CCNCC3)c(O)c2=O)C(=O)O)cc1)c1c(Cl)cncc1Cl" 0.00125 s⁻¹

Please give the documented k el of "CC(C)(C)/N=c1\c(O)c(O)\c1=N/[C@@H](Cc1ccc(NC(=O)c2c(Cl)cncc2Cl)cc1)C(=O)O" 0.000972 s⁻¹

Return reported k el. Input compound: "CCN(CC)c1c(N[C@@H](Cc2ccc(NC(=O)c3c(Cl)cncc3Cl)cc2)C(=O)O)c(=O)c1=O" 0.00161 s⁻¹

Quick one: give measured k el for "O=C(Nc1ccc(C[C@H](/N=c2\c(O)c(O)\c2=N/CCC(F)(F)F)C(=O)O)cc1)c1c(Cl)cncc1Cl" 0.000389 s⁻¹

====

- method-notes: Rate constant (k) of clearance from isolated perfused rat liver (IPRL)
- Type: ADME
Tag: criterion met if measured k el is not below 0.0007 s⁻¹, criterion not met if it is.

structure_notation=COCC/N=c1\c(O)c(O)\c1=N/[C@@H](Cc1ccc(NC(=O)c2c(Cl)cncc2Cl)cc1)C(=O)O label_class="criterion not met"

Please check the record "CCCC/N=c1\c(O)c(O)\c1=N/[C@@H](Cc1ccc(NC(=O)c2c(Cl)cncc2Cl)cc1)C(=O)O" and state if its k el is at or above 0.0007 s⁻¹. criterion not met

Check if k el >= 0.0007 s⁻¹ (inclusive). Item: "CCN(CC)c1c(N[C@@H](Cc2ccc(Oc3ncccn3)cc2)C(=O)O)c(=O)c1=O" criterion met

Hi, just wondering whether "CC(C)C/N=c1\c(O)c(O)\c1=N/[C@@H](Cc1ccc(NC(=O)c2c(Cl)cncc2Cl)cc1)C(=O)O" shows k el of 0.0007 s⁻¹ or higher. criterion not met

Assess whether reported k el for "CC(C)/N=c1\c(O)c(O)\c1=N/[C@@H](Cc1ccc(NC(=O)c2c(Cl)cncc2Cl)cc1)C(=O)O" sits at 0.0007 s⁻¹ or higher. criterion met

Form field: k el at least 0.0007 s⁻¹? Entry: "CCC/N=c1\c(O)c(O)\c1=N/[C@@H](Cc1ccc(-c2c(OC)cccc2OC)cc1)C(=O)O" criterion not met

Record "CCN(CC)c1c(N[C@@H](Cc2ccc(-c3ccccc3OC)cc2)C(=O)O)c(=O)c1=O" ; criterion: k el no lower than 0.0007 s⁻¹. Met? criterion not met

# bool: k el of "CCN(CC)c1c(N[C@@H](Cc2ccc(OCc3c(Cl)cccc3Cl)cc2)C(=O)O)c(=O)c1=O" >= 0.0007 s⁻¹ criterion met

====

Items are presented alongside their recorded IC50.
- tested-system: Integrin alpha-4/beta-1 (Homo sapiens, UniProt P05556+P13612)
- method-notes: Inhibition of binding of Very late antigen 4/vascular cell adhesion molecule 1 in a cell based ligand binding assay (Jurkat cells)
Lab book: enter the figure in nM, no units written.

compound=COCC/N=c1\c(O)c(O)\c1=N/[C@@H](Cc1ccc(NC(=O)c2c(Cl)cncc2Cl)cc1)C(=O)O value_observed=75
compound=CCCC/N=c1\c(O)c(O)\c1=N/[C@@H](Cc1ccc(NC(=O)c2c(Cl)cncc2Cl)cc1)C(=O)O value_observed=130
compound=O=C(Nc1ccc(C[C@H](/N=c2\c(O)c(O)\c2=N/CCC(F)(F)F)C(=O)O)cc1)c1c(Cl)cncc1Cl value_observed=90
compound="CCC(C)/N=c1\\c(O)c(O)\\c1=N/[C@@H](Cc1ccc(NC(=O)c2c(Cl)cncc2Cl)cc1)C(=O)O (stereo not given in full)" value_observed=160

// moving on: another record for IC50
Respond only with IC50 recorded for "CCN(C)c1c(N[C@@H](Cc2ccc(NC(=O)c3c(Cl)cncc3Cl)cc2)C(=O)O)c(=O)c1=O" 100
